test-target: full length Keap1 protein / full length NRF2 protein (Homo sapiens, UniProt Q14145)
Construct: full length NRF2 protein and full length Keap1 protein (Keap1 exists a dimer) are used; His
Sequence (Q14145 whole entry): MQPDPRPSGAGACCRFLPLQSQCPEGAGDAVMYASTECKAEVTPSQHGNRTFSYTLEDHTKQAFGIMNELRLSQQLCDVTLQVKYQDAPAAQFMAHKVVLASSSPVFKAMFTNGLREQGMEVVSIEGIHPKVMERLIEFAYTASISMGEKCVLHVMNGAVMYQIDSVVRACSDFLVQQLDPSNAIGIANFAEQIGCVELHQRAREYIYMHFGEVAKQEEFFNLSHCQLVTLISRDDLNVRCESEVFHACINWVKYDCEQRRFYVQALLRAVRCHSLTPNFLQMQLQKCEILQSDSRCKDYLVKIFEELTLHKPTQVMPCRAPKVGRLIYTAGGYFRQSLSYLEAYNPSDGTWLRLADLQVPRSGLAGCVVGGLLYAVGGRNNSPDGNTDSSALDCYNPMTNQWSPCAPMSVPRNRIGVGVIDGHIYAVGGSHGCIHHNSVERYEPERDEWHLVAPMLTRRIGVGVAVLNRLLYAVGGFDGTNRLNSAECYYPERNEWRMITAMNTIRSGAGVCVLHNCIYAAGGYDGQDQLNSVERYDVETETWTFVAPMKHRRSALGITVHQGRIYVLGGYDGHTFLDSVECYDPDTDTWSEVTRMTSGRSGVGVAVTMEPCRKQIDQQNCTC
assay: NRF2-Keap1 TR-FRET Assay
Assay type: binding
experimental-parameters: 25 nM Keap1-FlagHis and 50 nM biotin-NRF2 added
Reported IC50 values for a set of molecules

# annotated cases, reported IC50 shown
> print(dat)
                                   molecule     assay.value
1  CCC[C@@H]1CCCCN1C(=O)c1cccc(-c2cccc(-n3ncc(C(=O)O)c3[C@H]3C[C@@H]3c3cn(CC)nn3)c2)c1 (racemic)    10 to 100 nM
2  CCC[C@@H]1CCCCN1C(=O)c1cccc(-c2cccc(-n3ncc(C(=O)O)c3[C@@H]3C[C@H]3c3cn(C)nn3)c2)c1 [Example 51h]    10 to 100 nM
3  CCC[C@@H]1CCCCN1C(=O)c1cccc(-c2cccc(-n3ncc(C(=O)O)c3CCc3cn(C)nn3)c2)c1F    10 to 100 nM
4  Cn1cc(C2CC2c2c(C(=O)O)cnn2-c2cccc(-c3cccc(OC(C)(C)C)c3)c2)nn1 (centres unmarked)  100 to 1000 nM

Request the reported IC50 associated with CCC[C@@H]1CCCCN1C(=O)c1cccc(-c2cc(Cl)cc(-n3ncc(C(=O)O)c3C3CC3c3cn(C)nn3)c2)c1 (some centres unmarked)
10 to 100 nM

For the molecule shown here, "CC1(C)CCc2cnn(-c3cccc(-c4cccc(-n5ncc(C(=O)O)c5C(F)(F)F)n4)c3)c21" , give the reported IC50.
1000 to 10000 nM

Item under review: Cn1cc(C2CC2c2c(C(=O)O)cnn2-c2cccc(-c3cccc(C(O)CC4CCCCC4)c3)c2)nn1 (centres unmarked) . Reported IC50?
100 to 1000 nM

Which value of IC50 has been reported for COC1CCCC(COc2cccc(-c3cccc(-n4ncc(C(=O)O)c4[C@H]4C[C@@H]4c4cn(C)nn4)c3)c2)C1 (mixture of isomers) in the records?
100 to 1000 nM
